# System: OVCAR-4 (Ovarian Carcinoma)
# test_protocol: combination Emax (second highest fraction inhibited in the dose matrix, 72 h); higher = more inhibition; extreme values may be limits of the assay
value_kind: combination Emax

CN(CCO)CC[C@H](CSc1ccccc1)Nc1ccc(S(=O)(=O)NC(=O)c2ccc(N3CCC([C@@H](O)c4ccccc4-c4ccc(Cl)cc4)CC3)cc2)cc1S(=O)(=O)C(F)(F)F [AZD4320] + C=CCn1c(=O)c2cnc(Nc3ccc(N4CCN(C)CC4)cc3)nc2n1-c1cccc(C(C)(C)O)n1 [AZD1775] (first compound max 1 µM, partner max 1 µM): 0.662
NC1(C(=O)N[C@@H](CCO)c2ccc(Cl)cc2)CCN(c2ncnc3[nH]ccc23)CC1 [Capivasertib] + COc1nnc2ccc(N3CCC(c4ccc(OCCN5CCN(C)C(=O)[C@H]5C)cc4)CC3)nn12 [AZD5153] (first compound max 10 µM, 7x7, partner max 1 µM): 0.398

---

# Test system: EFM-19 (Breast Carcinoma);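 further: after 72 h of two-drug dosing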
# test_protocol: Bliss excess, mean over the matrix (fraction); higher = more synergy
value_kind: Bliss excess

C[C@@H](Nc1cc(F)cc(F)c1)c1cc(C(=O)N(C)C)cc2c(=O)cc(N3CCOCC3)oc12 [AZD8186] + C1CN(CCC1(C(=O)N[C@@H](CCO)C2=CC=C(C=C2)Cl)N)C3=NC=NC4=C3C=CN4 [AZD5363] (first compound max 10 µM, 7x7, partner max 10 µM): -0.0075
Cn1cnc2c(F)c(Nc3ccc(Br)cc3Cl)c(C(=O)NOCCO)cc21 [Selumetinib] + CC(C)n1c(=O)n(C)c2cnc3cc(F)c(-c4ccc(OCCCN5CCCCC5)nc4)cc3c21 [AZD1390] (first compound max 10 µM, 7x7, partner max 0.3 µM): -0.0264
CN(CCO)CC[C@H](CSc1ccccc1)Nc1ccc(S(=O)(=O)NC(=O)c2ccc(N3CCC([C@@H](O)c4ccccc4-c4ccc(Cl)cc4)CC3)cc2)cc1S(=O)(=O)C(F)(F)F [AZD4320] + Nc1ccn([C@@H]2O[C@H](CO)[C@@H](O)C2(F)F)c(=O)n1 [Gemcitabine] (first compound max 1 µM, 7x7, partner max 0.3 µM): 0.0067
C[C@@H](c1ccc2nccn2c1)n1nnc2ncc(-c3cnn(C)c3)nc21 [Savolitinib] + CC1(C)CCC(CN2CCN(c3ccc(C(=O)NS(=O)(=O)c4ccc(NCC5CCOCC5)c([N+](=O)[O-])c4)c(Oc4cnc5[nH]ccc5c4)c3)CC2)=C(c2ccc(Cl)cc2)C1 [Venetoclax] (first compound max 1 µM, 7x7, partner max 1 µM): -0.0273
NC1(C(=O)N[C@@H](CCO)c2ccc(Cl)cc2)CCN(c2ncnc3[nH]ccc23)CC1 [Capivasertib] + CC(=O)c1c(C)c2cnc(Nc3ccc(N4CCNCC4)cn3)nc2n(C2CCCC2)c1=O [Palbociclib] (first compound max 10 µM, 7x7, partner max 10 µM): -0.0107
CC(=O)c1c(C)c2cnc(Nc3ccc(N4CCNCC4)cn3)nc2n(C2CCCC2)c1=O [Palbociclib] + CC1(C)CCC(CN2CCN(c3ccc(C(=O)NS(=O)(=O)c4ccc(NCC5CCOCC5)c([N+](=O)[O-])c4)c(Oc4cnc5[nH]ccc5c4)c3)CC2)=C(c2ccc(Cl)cc2)C1 [Venetoclax] (first compound max 10 µM, 7x7, partner max 1 µM): -0.0475
CC1(C)CCC(CN2CCN(c3ccc(C(=O)NS(=O)(=O)c4ccc(NCC5CCOCC5)c([N+](=O)[O-])c4)c(Oc4cnc5[nH]ccc5c4)c3)CC2)=C(c2ccc(Cl)cc2)C1 [Venetoclax] + CCN(CCO)CCCOc1ccc2c(Nc3cc(CC(=O)Nc4cccc(F)c4)[nH]n3)ncnc2c1 [AZD2811] (first compound max 1 µM, 7x7, partner max 1 µM): 0.0005

Source listed as the supplement of paper PMC11061612.
